Assay: In vivo pharmacokinetic evaluation after i.v. and p.o. administration to rats
Parameters: species or system rat
Conditions: rat, plasma, po, 25 mg/kg, Rat 4, PO 25 mg/Kg HPMC suspension
METRIC NAME: Cmax (nM)

entry_smiles=COC[C@H]1O[C@H](OCCc2ccccc2)[C@H](NC(=O)CCCN)[C@@H](OCc2ccc3ccccc3c2)[C@@H]1O reported_value=2940

* * *

Target: Human SST5 somatostatin receptor (SSTR5) (Homo sapiens, UniProt P35346)
Construct: expressed in transfected cells; host or cells: HEK-293 EBNA
Sequence (P35346 whole entry): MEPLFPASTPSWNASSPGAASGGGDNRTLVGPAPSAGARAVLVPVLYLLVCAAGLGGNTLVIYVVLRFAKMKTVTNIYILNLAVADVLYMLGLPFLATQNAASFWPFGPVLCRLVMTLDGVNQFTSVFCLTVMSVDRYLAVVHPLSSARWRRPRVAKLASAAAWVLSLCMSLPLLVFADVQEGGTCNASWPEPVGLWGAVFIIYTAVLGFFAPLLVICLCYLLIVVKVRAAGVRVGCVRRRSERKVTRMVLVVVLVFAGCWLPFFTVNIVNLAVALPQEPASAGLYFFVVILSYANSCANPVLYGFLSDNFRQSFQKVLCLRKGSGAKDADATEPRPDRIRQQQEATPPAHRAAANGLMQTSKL
Assay: Filter plate assay for SST5 receptor, displacement of [125I]SST-14
Format: binding
Conditions: 0.5 uM
Measured SSTR5 Inhib 0.5 uM % (inhibition of binding of SST-14 to SSTR5) of individual entries
METRIC NAME: SSTR5 Inhib 0.5 uM % (inhibition of binding of SST-14 to SSTR5) (%)

compound="COC[C@H]1OC(OCc2ccccc2)[C@H](NC(=O)CNC(=N)N)[C@H](OCc2ccc(-c3ccccc3)cc2)[C@@H]1O (stereo partly drawn)" reported_value=37
compound="COC[C@H]1OC(OCc2ccc3ccccc3c2)[C@H](NC(=O)CCCN)[C@@H](OCc2cccc(O)c2)[C@@H]1O (stereo partly drawn) [Compound 82]" reported_value=48
compound="COC[C@H]1OC(OCc2ccccc2)[C@H](NC(=O)CCCN)[C@@H](OCc2ccc3ccccc3c2)[C@@H]1O (stereo partly drawn)" reported_value=80
compound="COC[C@H]1OC(OCc2ccc(-c3ccccc3)cc2)[C@H](NC(=O)CCCNC(=N)N)[C@@H](OCc2ccc3ccccc3c2)[C@@H]1O (stereo partly drawn) [Compound 107]" reported_value=54
compound="COC[C@H]1OC(OCCc2ccccc2)[C@H](NC(=O)CCCNC(=N)N)[C@H](OCc2ccc(Cl)cc2)[C@@H]1O (stereo partly drawn)" reported_value=61
compound="COC[C@H]1OC(OCc2ccc(Cl)cc2)[C@H](NC(=O)CCCN)[C@H](OCc2ccc(Cl)cc2)[C@@H]1O (stereo partly drawn)" reported_value=83

* * *

Assay: In vivo pharmacokinetic evaluation after i.v. and p.o. administration to rats
Set-up: species or system rat
Conditions: rat, plasma, iv, 2 mg/Kg, IV, Mean ± SD of two rats; read-out: Cltotal (total plasma clearance)
METRIC NAME: clearance (mL/min/kg)

entry_smiles=COC[C@H]1O[C@H](OCCc2ccccc2)[C@H](NC(=O)CCCN)[C@@H](OCc2ccc3ccccc3c2)[C@@H]1O metric_name=clearance reported_value=8.2

* * *

Measured SSTR5 Inhib 10 uM % (inhibition of binding of SST-14 to SSTR5) of individual entries
Target: Human SST5 somatostatin receptor (SSTR5) (Homo sapiens, UniProt P35346)
Construct: expressed in transfected cells; host or cells: HEK-293 EBNA
Test: Filter plate assay for SST5 receptor, displacement of [125I]SST-14
Type: binding
Details: 10 uM
METRIC NAME: SSTR5 Inhib 10 uM % (inhibition of binding of SST-14 to SSTR5) (%)

compound="COC[C@H]1OC(OCc2ccc3ccccc3c2)[C@H](NC(=O)CCCN)[C@H](OCc2ccc(-c3ccccc3)cc2)[C@@H]1O (stereo partly shown) [Compound 43]" value_unit=% reported_value=94
compound="CSC1O[C@H](COCc2ccc(-c3ccccc3)cc2)[C@@H](O)[C@@H](OCc2ccc3ccccc3c2)[C@H]1NC(=O)CCCN (stereo partly shown) [Compound 127]" value_unit=% reported_value=80
compound="CSC1O[C@H](COCc2ccccc2)[C@@H](O)[C@@H](OCc2ccc(-c3ccccc3)cc2)[C@H]1NC(=O)CCCN (stereo partly shown) [Compound 94]" value_unit=% reported_value=86
compound="COC[C@H]1OC(OCc2ccccc2)[C@H](NC(=O)CCNC(=N)N)[C@H](OCc2ccc(Cl)cc2)[C@@H]1O (stereo partly shown) [Compound 102]" value_unit=% reported_value=84
compound="COC[C@H]1OC(OCc2ccccc2)[C@H](NC(=O)CNC(=N)N)[C@H](OCc2ccc(-c3ccccc3)cc2)[C@@H]1O (stereo partly shown) [Compound 119]" value_unit=% reported_value=81
compound="CSC1O[C@H](COCc2ccc3ccccc3c2)[C@@H](O)[C@@H](OCc2ccccc2)[C@H]1NC(=O)CCNC(=N)N (stereo partly shown) [Compound 89]" value_unit=% reported_value=86
compound="NCCC(=O)N[C@H]1CO[C@H](COCc2ccc(-c3ccccc3)cc2)[C@@H](O)[C@H]1OCc1ccc(Cl)cc1 [Compound 124]" value_unit=% reported_value=80
compound="CO[C@H]1[C@H](O)[C@@H](COCc2ccc(-c3ccccc3)cc2)OC(OCc2ccc3ccccc3c2)[C@@H]1NC(=O)CCCN (stereo partly shown) [Compound 161]" value_unit=% reported_value=74
compound="COC[C@H]1OC(OCc2ccc3ccccc3c2)[C@H](NC(=O)CCCN)[C@@H](OCc2ccc(Cl)cc2)[C@@H]1O (stereo partly shown) [Compound 47]" value_unit=% reported_value=93
compound="COC[C@H]1OC(OCCc2ccccc2)[C@H](NC(=O)CCCN)[C@H](OCc2ccc3ccccc3c2)[C@@H]1O (stereo partly shown) [Compound 28]" value_unit=% reported_value=96
compound="COC1C(O)C(COCc2ccc3ccccc3c2)OC(OCc2ccc(Cl)cc2)C1NC(=O)C1CCN(C(=N)N)CC1 (stereo not shown) [Compound 79]" value_unit=% reported_value=88
compound="CO[C@H]1[C@H](O)[C@@H](COCc2ccc(-c3ccccc3)cc2)OC(OCc2ccc(Cl)cc2)[C@@H]1NC(=O)CCCNC(=N)N (stereo partly shown) [Compound 67]" value_unit=% reported_value=89
compound="COC[C@H]1OC(OCc2ccc3ccccc3c2)[C@H](NC(=O)CCCN)[C@H](OCc2ccc(Cl)cc2)[C@@H]1O (stereo partly shown) [Compound 20]" value_unit=% reported_value=97
